# pKd per entry
# target or test system: p53 Y220C mutant protein (amino acid residues 94-293) (Homo sapiens, UniProt P04637, Y220C)
# Construct: p53 Y220C mutant protein (amino acid residues 94-293)
# assay: Surface Plasmon Resonance (SPR) assay, Kd_kinetic
# Format: binding
# details: SPR, kinetic KD, p53 Y220C; read-out: SPR P53 Y220C KD kinetic
pKd: −log10 of the molar value.

Worked set:
# compound, pKd
records = [
    ("COc1cc(S(C)(=O)=O)ccc1NCC#Cc1nc2c(N[C@H]3CCN(C)C[C@H]3F)cccn2c1CC(F)(F)F [Example 6]", "7.00 to 8.00"),
    ("CNC(=O)c1ccc(NCC#Cc2nc3c(N[C@@H]4CCN(C)C[C@@H]4F)cccn3c2CC(F)(F)F)c(Cl)c1 [Example 55]", "7.00 to 8.00"),
    ("CNC(=O)c1ccc(NCC#Cc2nc3c(N[C@@H]4CCN(C)C[C@@H]4F)cccn3c2SC(F)(F)F)cn1 [Example 94]", "> 8.00"),
]

Here's the next entry for you.
The compound listed as COc1cc(C(=O)N2CCCC2)ccc1NCC#Cc1nc2c(N[C@@H]3CCN(C)C[C@@H]3F)cccn2c1CC(F)(F)F [Example 50] shows pKd equal to 7.00 to 8.00

###

# target or test system: p53 Y220C mutant protein (amino acid residues 94-293) (Homo sapiens, UniProt P04637, Y220C)
# Construct: p53 Y220C mutant protein (amino acid residues 94-293)
# assay: Surface Plasmon Resonance (SPR) assay, Kd_kinetic
# Assay type: binding
# details: SPR; p53 Y220C; read-out: SPR P53 Y220C KD kinetic
pKd: −log10 of the molar value.
Entries and their pKd

# compound, pKd
data = [
    ("CNC(=O)c1ccc(OC2COC2)c(NCC#Cc2cc3c(N[C@@H]4CCN(C)C[C@@H]4F)nccn3c2SC(F)(F)F)c1", "> 8.00"),
    ("COc1ccc(C(=O)N[C@H]2C[C@H](O)C2)cc1NCC#Cc1cc2c(N[C@@H]3CCN(C)C[C@@H]3F)cccn2c1SC(F)(F)F", "> 8.00"),
    ("CNC(=O)c1ccc(OC[C@H](C)O)c(NCC#Cc2cc3c(N[C@@H]4CCN(C)C[C@@H]4F)nccn3c2SC(F)(F)F)c1 (single isomer, unassigned)", "> 8.00"),
    ("COc1cc(S(C)(=O)=O)ccc1NCC#Cc1cc2c(N[C@@H]3CCNC[C@@H]3F)cccn2c1SC(F)(F)F", "> 8.00"),
    ("CNC(=O)c1ccc(NCC#Cc2nc3c(NC4CCS(=O)(=O)C4)cccn3c2SC(F)(F)F)c(OC)c1 (single isomer, unassigned)", "7.00 to 8.00"),
]

Let's switch to this compound now.
Entry under test: CN1CCO[C@@H](CNC(=O)c2ccc(NCC#Cc3cc4c(N[C@@H]5CCN(C)C[C@@H]5F)cccn4c3SC(F)(F)F)cc2)C1 . Its pKd was > 8.00

###

Parameter Emax: see the listing below.
# target or test system: p53 Y220C (Homo sapiens, UniProt P04637, Y220C)
# assay: Luciferase Reporter Assay (Luc), p53 response element, NClH1299 cells with inducible p53 Y220C
# Assay type: cell-based
# details: Emax; luciferase reporter, NClH1299 inducible p53 Y220C, 6 hour

In the examples that follow, each entry is paired with its recorded Emax.
# molecule, Emax
data = [
    ("COc1cc(S(C)(=O)=O)ccc1NCC#Cc1nn2c(N[C@@H]3CCN(C)C[C@@H]3F)cccc2c1SC(F)(F)F", "80 to 90%"),
    ("CNC(=O)c1ccc(OC)c(NCC#Cc2cc3c(N[C@@H]4CCNC[C@@H]4F)nccn3c2SC(F)(F)F)n1", "80 to 90%"),
    ("CNC(=O)c1ccc(C(=O)NC)c(NCC#Cc2cc3c(N[C@@H]4CCN(C)C[C@@H]4F)nccn3c2SC(F)(F)F)c1", "> 90%"),
]

Then this compound:
CNC(=O)c1ccc(NCC#Cc2cc3c(N[C@@H]4CCN(C)C[C@@H]4F)cccn3c2SC(F)(F)F)cc1 yielded Emax of > 90%

###

Measured Kd accompanies every entry in the list below.
# target or test system: p53 Y220C mutant protein (amino acid residues 94-293) (Homo sapiens, UniProt P04637, Y220C)
# Construct: p53 Y220C mutant protein (amino acid residues 94-293)
# assay: Surface Plasmon Resonance (SPR) assay, Kd_kinetic
# Type: binding
# details: SPR, kinetic KD, p53 Y220C; read-out: SPR P53 Y220C KD kinetic

# compound, data value
rows = [
    ("CNC(=O)c1ccc(NCC#Cc2nc3c(N[C@H]4CCNC(=O)C4)cccn3c2SC(F)(F)F)c(OC)c1 [Example 174]", "< 10 nM"),
    ("COc1cc(S(=O)(=O)N(C)C)ccc1NCC#Cc1nc2c(N[C@@H]3CCN(C)C[C@@H]3F)cccn2c1CC(F)(F)F [Example 65]", "10 to 100 nM"),
    ("CNS(=O)(=O)c1ccc(OC)c(NCC#Cc2cc3c(N[C@@H]4CCN(C)C[C@@H]4F)cccn3c2SC(F)(F)F)c1 [Example 132]", "< 10 nM"),
]

For record CNC(=O)c1ccc(OC)c(NCC#Cc2nc3c(N[C@@H]4CN(C)C[C@@H]4F)cccn3c2SC(F)(F)F)c1 [Example 153] the listed Kd is < 10 nM

###

# target or test system: p53 Y220C (Homo sapiens, UniProt P04637, Y220C)
# assay: Luciferase Reporter Assay (Luc), p53 response element, NClH1299 cells with inducible p53 Y220C
# Type: cell-based
# details: luciferase reporter, NClH1299 inducible p53 Y220C, 6 hour; read-out: Luc P53 Y220C AC50
# Experimental: Luciferase Reporter Assay Protocol The cells were then used for p53 reporter assay. 5,000 cells were seeded in each well of 384 plate and cultured in 0.5 ug/mL doxycycline (D3072; Sigma) containing medium for 24 hours before compound treatment. […] The luciferase activity was immediately measured with PheraStar microplate reader.
measured metric: AC50

# compound, AC50
rows = [
    ("CNC(=O)c1ccc(NCC#Cc2nc3c(N[C@@H]4CCc5nncn5C4)cccn3c2SC(F)(F)F)c(OC)c1 [Example 192]", "> 3 µM"),
    ("CNC(=O)c1ccc(NCC#Cc2nc3c(N[C@@H]4CCc5ncnn5C4)cccn3c2SC(F)(F)F)c(OC)c1 (stereo in doubt) [Example 190]", "< 0.75 µM"),
    ("COc1cc(S(C)(=O)=O)ccc1NCC#Cc1nc2c(NC3CCN(C(C)C)CC3)cccn2c1CC(F)(F)F [Example 9]", "1.5 to 3 µM"),
    ("C[C@H](O)C#Cc1nc2c(N[C@@H]3CCN(C)C[C@@H]3F)cccn2c1CC(F)(F)F [Example 71]", "> 3 µM"),
    ("COc1cc(S(C)(=O)=O)ccc1NCC#Cc1nc2c(NC3CCOCC3)cccn2c1CC(F)(F)F [Example 3]", "1.5 to 3 µM"),
    ("CNC(=O)c1ccc(NCC#Cc2nc3c(NC4CCN(C)CC4)cc(NC(=O)CCl)cn3c2CC(F)(F)F)c(OC)c1 [Example 91]", "> 3 µM"),
]

Next compound, AC50 to be filled in.
Value (AC50, p53 Y220C (Homo sapiens, UniProt P04637, Y220C)) for record CNC(=O)c1ccc(OC)c(NCC#Cc2nc3c(N[C@@H]4CNC[C@@H]4F)cccn3c2SC(F)(F)F)n1 [Example 172] = < 0.75 µM

###

Here the recorded Emax is given for each entry.
# target or test system: p53 Y220C (Homo sapiens, UniProt P04637, Y220C)
# assay: Luciferase Reporter Assay (Luc), p53 response element, NClH1299 cells with inducible p53 Y220C
# Format: cell-based
# details: Emax; luciferase reporter, NClH1299 inducible p53 Y220C, 6 hour

Sample C[C@@H](O)CNC(=O)c1ccc(NCC#Cc2cc3c(N[C@@H]4CCNC[C@@H]4F)cccn3c2SC(F)(F)F)cc1 , system: p53 Y220C (Homo sapiens, UniProt P04637, Y220C). Its Emax is > 90%

Query CNC(=O)c1ccc(OC)c(NCC#Cc2nc3c(N[C@@H]4[C@@H]5CC[C@H]4NC5)cccn3c2SC(F)(F)F)c1 on p53 Y220C (Homo sapiens, UniProt P04637, Y220C); Emax returned: 70 to 80%

Here CNC(=O)c1ccc(NCC#Cc2cc3c(N[C@@H]4CCN(C)C[C@@H]4F)cccn3c2SC(F)(F)F)c(C(F)F)c1 was tested on p53 Y220C (Homo sapiens, UniProt P04637, Y220C), and its Emax came to > 90%

Result for O=C(NC[C@@H]1CCO1)c1ccc(NCC#Cc2cc3c(N[C@@H]4CCNC[C@@H]4F)cccn3c2SC(F)(F)F)cc1 , tested on p53 Y220C (Homo sapiens, UniProt P04637, Y220C), Emax: 80 to 90%

The measured Emax that CNC(=O)c1cc(F)c(OC)c(NCC#Cc2nc3c(N[C@@H]4CCN(C)C[C@@H]4F)nccn3c2SC(F)(F)F)c1 showed for p53 Y220C (Homo sapiens, UniProt P04637, Y220C) is > 90%

Entry CN1CC[C@@H](Nc2cccn3c(SC(F)(F)F)c(C#CCNc4ccc(C(=O)NC[C@@H]5COCCO5)cc4)cc23)[C@@H](F)C1 , p53 Y220C (Homo sapiens, UniProt P04637, Y220C) data, Emax value: > 90%

Result for CNC(=O)c1ccc(NCC#Cc2nc3c(N[C@@H]4CCOC[C@@H]4F)cccn3c2SC(F)(F)F)c(OC2CN(C)C2)c1 , tested on p53 Y220C (Homo sapiens, UniProt P04637, Y220C), Emax: 80 to 90%
